Source of measurements: paper PMC6008168

test: Permeability, PAMPA assay; format: in vitro ADME

Molecule: COc1cccc(-c2nc(C)c(COc3ccc(C(=O)O)cc3)o2)c1 [11b]
Papp, ×10⁻⁶ cm/s: 170

Molecule: COC(=O)Cc1ccc(OCc2oc(-c3ccccc3OC)nc2C)cc1
Papp, ×10⁻⁶ cm/s: 275

Molecule: COC(=O)c1ccccc1OCc1oc(-c2cccc(OC)c2)nc1C
Papp, ×10⁻⁶ cm/s: 513

Molecule: COC(=O)c1cccc(OCc2oc(-c3ccccc3OC)nc2C)c1
Papp, ×10⁻⁶ cm/s: 380

Molecule: COc1cccc(-c2nc(C)c(COc3ccc(CCC(=O)O)cc3)o2)c1 [13b]
Papp, ×10⁻⁶ cm/s: 120

Molecule: COC(=O)CCc1ccc(OCc2oc(-c3cccc(OC)c3)nc2C)cc1
Papp, ×10⁻⁶ cm/s: 457

Molecule: COc1cccc(-c2nc(C)c(COc3ccc(CC(=O)O)cc3)o2)c1 [12b]
Papp, ×10⁻⁶ cm/s: 132

Molecule: COC(=O)c1ccc(OCc2oc(-c3ccccc3OC)nc2C)cc1
Papp, ×10⁻⁶ cm/s: 447

Molecule: COc1ccccc1-c1nc(C)c(COc2ccc(C(=O)O)cc2)o1 [11a]
Papp, ×10⁻⁶ cm/s: 214

Molecule: COC(=O)c1cccc(OCc2oc(-c3cccc(OC)c3)nc2C)c1
Papp, ×10⁻⁶ cm/s: 427

Molecule: COc1cccc(-c2nc(C)c(COc3cccc(C(=O)O)c3)o2)c1 [10b]
Papp, ×10⁻⁶ cm/s: 132

Molecule: COc1ccccc1-c1nc(C)c(COc2ccc(CC(=O)O)cc2)o1 [12a]
Papp, ×10⁻⁶ cm/s: 191

Molecule: COc1ccccc1-c1nc(C)c(COc2ccc(CCC(=O)O)cc2)o1 [13a]
Papp, ×10⁻⁶ cm/s: 257

Molecule: COC(=O)c1ccccc1OCc1oc(-c2ccccc2OC)nc1C
Papp, ×10⁻⁶ cm/s: 468

Molecule: COc1ccccc1-c1nc(C)c(COc2cccc(C(=O)O)c2)o1 [10a]
Papp, ×10⁻⁶ cm/s: 263

Molecule: COc1cccc(-c2nc(C)c(COc3ccccc3C(=O)O)o2)c1
Papp, ×10⁻⁶ cm/s: 234

Molecule: COc1ccccc1-c1nc(C)c(COc2ccccc2C(=O)O)o1
Papp, ×10⁻⁶ cm/s: 234

Molecule: COC(=O)c1ccc(OCc2oc(-c3cccc(OC)c3)nc2C)cc1
Papp, ×10⁻⁶ cm/s: 372

Molecule: COC(=O)CCc1ccc(OCc2oc(-c3ccccc3OC)nc2C)cc1
Papp, ×10⁻⁶ cm/s: 457

Molecule: COC(=O)Cc1ccc(OCc2oc(-c3cccc(OC)c3)nc2C)cc1
Papp, ×10⁻⁶ cm/s: 479
